- experimental.details: Metabolic stability (t1/2, CLint) of AC, MA and HA in RLMs of pretreated rats
- test.parameters: SD, rat, microsomes, CLint, RLMs of rats pretreated with Glycyrrhizae 1 g/kg
observation.type: microsomal CLint at 25 µM (µL/min/mg)
Numbers only, in µL/min/mg.

Query: Please give the measured microsomal CLint at 25 µM for this compound: CCN1C[C@]2(COC)[C@H](O)C[C@H](OC)[C@@]34[C@@H]5C[C@@]6(O)[C@H](OC(=O)c7ccccc7)[C@@H]5[C@@](OC(C)=O)([C@@H]([C@H](OC)[C@H]23)[C@@H]14)[C@@H](O)[C@@H]6OC
Result: 15.5

* * *

- experimental.details: in vitro
- test.parameters: SD, rat, microsomes, t1/2, RLMs of Control rats
observation.type: half-life (h)
Answers are plain numbers, in h.

Query: Quick one: half-life of COC[C@@]12CC[C@H](OC)[C@]34C(C([C@H](OC)[C@H]13)[C@]1(OC(C)=O)[C@H]3[C@@H](OC(=O)c5ccccc5)[C@](O)(C[C@H]34)[C@@H](OC)[C@@H]1O)N(C)C2 ?
Result: 4.39

* * *

- experimental.details: in vitro
- test.parameters: SD, rat, microsomes, t1/2, RLMs of rats pretreated with Glycyrrhizae 1 g/kg
observation.type: half-life (h)
Answers are plain numbers, in h.

Query: Need half-life of COC[C@@]12CC[C@H](OC)[C@]34C(C([C@H](OC)[C@H]13)[C@]1(OC(C)=O)[C@H]3[C@@H](OC(=O)c5ccccc5)[C@](O)(C[C@H]34)[C@@H](OC)[C@@H]1O)N(C)C2 , thanks.
Result: 3.4

* * *

- experimental.details: Metabolic stability (t1/2, CLint) of AC, MA and HA in RLMs of pretreated rats
- test.parameters: SD, rat, microsomes, t1/2, RLMs of Control rats
observation.type: half-life at 25 µM (h)
One number for each entry, in h.

Query: What measured half-life at 25 µM goes with CCN1C[C@]2(COC)[C@H](O)C[C@H](OC)[C@@]34[C@@H]5C[C@@]6(O)[C@H](OC(=O)c7ccccc7)[C@@H]5[C@@](OC(C)=O)([C@@H]([C@H](OC)[C@H]23)[C@@H]14)[C@@H](O)[C@@H]6OC ?
Result: 4.28

* * *

- experimental.details: in vitro
- test.parameters: SD, rat, microsomes, CLint, RLMs of rats pretreated with Phenobarbital 0.08 g/kg
observation.type: microsomal CLint (µL/min/mg)
One number for each entry, in µL/min/mg.

Query: Form field: reported microsomal CLint of COC[C@@]12CC[C@H](OC)[C@]34C(C([C@H](OC)[C@H]13)[C@]1(OC(C)=O)[C@H]3[C@@H](OC(=O)c5ccccc5)[C@](O)(C[C@H]34)[C@@H](OC)[C@@H]1O)N(C)C2
Result: 14

* * *

- experimental.details: Metabolic stability (t1/2, CLint) of AC, MA and HA in RLMs of pretreated rats
- test.parameters: SD, rat, microsomes, CLint, RLMs of rats pretreated with Phenobarbital 0.08 g/kg
observation.type: microsomal CLint at 25 µM (µL/min/mg)
Answers are plain numbers, in µL/min/mg.

Query: Request the reported microsomal CLint at 25 µM associated with CCN1C[C@]2(COC)[C@H](O)C[C@H](OC)[C@@]34[C@@H]5C[C@@]6(O)[C@H](OC(=O)c7ccccc7)[C@@H]5[C@@](OC(C)=O)([C@@H]([C@H](OC)[C@H]23)[C@@H]14)[C@@H](O)[C@@H]6OC
Result: 16.3

* * *

- experimental.details: Metabolic stability (t1/2, CLint) of AC, MA and HA in RLMs of pretreated rats
- test.parameters: SD, rat, microsomes, CLint, RLMs of Control rats
observation.type: microsomal CLint at 25 µM (µL/min/mg)
Answers are plain numbers, in µL/min/mg.

Query: For CCN1C[C@]2(COC)[C@H](O)C[C@H](OC)[C@@]34[C@@H]5C[C@@]6(O)[C@H](OC(=O)c7ccccc7)[C@@H]5[C@@](OC(C)=O)([C@@H]([C@H](OC)[C@H]23)[C@@H]14)[C@@H](O)[C@@H]6OC [AC, aconitine] , what is its reported microsomal CLint at 25 µM?
Result: 10.8

* * *

- experimental.details: in vitro
- test.parameters: SD, rat, microsomes, CLint, RLMs of Control rats
observation.type: microsomal CLint (µL/min/mg)
Numbers only, in µL/min/mg.

Query: Any idea what microsomal CLint was measured for COC[C@@]12CC[C@H](OC)[C@]34C(C([C@H](OC)[C@H]13)[C@]1(OC(C)=O)[C@H]3[C@@H](OC(=O)c5ccccc5)[C@](O)(C[C@H]34)[C@@H](OC)[C@@H]1O)N(C)C2 ?
Result: 10.5

* * *

- experimental.details: in vitro
- test.parameters: SD, rat, microsomes, t1/2, RLMs of rats pretreated with Glycyrrhizae 0.33 g/kg
observation.type: half-life
Note: a bare number is incomplete; add the unit.

Query: Given the molecule COC[C@@]12CC[C@H](OC)[C@]34C(C([C@H](OC)[C@H]13)[C@]1(OC(C)=O)[C@H]3[C@@H](OC(=O)c5ccccc5)[C@](O)(C[C@H]34)[C@@H](OC)[C@@H]1O)N(C)C2 , what is its reported half-life?
Result: 3.81 h

* * *

- experimental.details: in vitro
- test.parameters: SD, rat, microsomes, CLint, RLMs of rats pretreated with Glycyrrhizae 3 g/kg
observation.type: microsomal CLint (µL/min/mg)
Answers are plain numbers, in µL/min/mg.

Query: Recorded microsomal CLint of COC[C@@]12CC[C@H](OC)[C@]34C(C([C@H](OC)[C@H]13)[C@]1(OC(C)=O)[C@H]3[C@@H](OC(=O)c5ccccc5)[C@](O)(C[C@H]34)[C@@H](OC)[C@@H]1O)N(C)C2 , please.
Result: 11.6

* * *

- experimental.details: Metabolic stability (t1/2, CLint) of AC, MA and HA in RLMs of pretreated rats
- test.parameters: SD, rat, microsomes, CLint, RLMs of rats pretreated with Glycyrrhizae 3 g/kg
observation.type: microsomal CLint at 25 µM (µL/min/mg)
Answers are plain numbers, in µL/min/mg.

Query: Quick check: microsomal CLint at 25 µM of CCN1C[C@]2(COC)[C@H](O)C[C@H](OC)[C@@]34[C@@H]5C[C@@]6(O)[C@H](OC(=O)c7ccccc7)[C@@H]5[C@@](OC(C)=O)([C@@H]([C@H](OC)[C@H]23)[C@@H]14)[C@@H](O)[C@@H]6OC ?
Result: 11.6

* * *

- experimental.details: Metabolic stability (t1/2, CLint) of AC, MA and HA in RLMs of pretreated rats
- test.parameters: SD, rat, microsomes, t1/2, RLMs of rats pretreated with Glycyrrhizae 1 g/kg
observation.type: half-life at 25 µM (h)
Answers are plain numbers, in h.

Query: Record request: half-life at 25 µM value, item CCN1C[C@]2(COC)[C@H](O)C[C@H](OC)[C@@]34[C@@H]5C[C@@]6(O)[C@H](OC(=O)c7ccccc7)[C@@H]5[C@@](OC(C)=O)([C@@H]([C@H](OC)[C@H]23)[C@@H]14)[C@@H](O)[C@@H]6OC
Result: 2.99
